# System name: MMP-9 (Homo sapiens, UniProt P14780)
# Construct: made in house; host or cells: MMP-9-transfected HT1080 cells (spent media)
# Sequence (P14780 107-707 limits assumed): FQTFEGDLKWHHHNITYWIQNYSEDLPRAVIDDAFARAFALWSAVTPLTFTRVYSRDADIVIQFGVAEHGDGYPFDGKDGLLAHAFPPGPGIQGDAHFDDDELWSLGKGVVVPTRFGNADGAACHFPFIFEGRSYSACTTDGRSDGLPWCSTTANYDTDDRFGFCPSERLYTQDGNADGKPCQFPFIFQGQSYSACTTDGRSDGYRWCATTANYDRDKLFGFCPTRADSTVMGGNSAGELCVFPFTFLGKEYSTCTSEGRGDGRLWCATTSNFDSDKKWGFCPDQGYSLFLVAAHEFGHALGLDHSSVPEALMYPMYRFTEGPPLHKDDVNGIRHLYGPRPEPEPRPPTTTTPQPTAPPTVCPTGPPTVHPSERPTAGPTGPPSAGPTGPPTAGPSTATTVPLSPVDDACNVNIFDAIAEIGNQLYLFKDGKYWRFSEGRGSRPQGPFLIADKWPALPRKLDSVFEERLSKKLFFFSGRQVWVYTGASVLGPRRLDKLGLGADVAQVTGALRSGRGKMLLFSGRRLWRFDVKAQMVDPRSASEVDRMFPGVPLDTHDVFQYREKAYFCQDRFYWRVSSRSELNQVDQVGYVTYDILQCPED
# Assay: In vitro MMP inhibition, Ki determination (fluorogenic substrate II)
# Format: biochemical
# Run parameters: value outside parentheses
Consider the following molecules; for each one, report its log10 of Ki.
Note: values are log10 of Ki expressed in nM.

Examples with their reported log10 of Ki follow.
Cc1ccccc1-c1cnc(N2CCN(S(=O)(=O)C3(C(=O)NO)CCOCC3)CC2)s1: 0.98
COc1ccccc1-c1ccc(N2CCN(S(=O)(=O)C3(C(=O)NO)CCOCC3)CC2)nc1: 3.14
CCCCOc1ccc(N2CCN(S(=O)(=O)C3(C(=O)NO)CCN(C(=O)C4CC4)CC3)CC2)cc1: -0.02
CCCCOc1ccc(N2CCN(S(=O)(=O)C3(C(=O)NO)CCN(Cc4ccco4)CC3)CC2)cc1: 0.16
O=C(NO)C1(S(=O)(=O)N2CCN(c3ccc(-c4ccc(OC(F)(F)F)cc4)cc3)CC2)CCOCC1: 1.55
O=C(NO)C1(S(=O)(=O)N2CCN(c3ccc(SC(F)(F)F)cc3)CC2)CCS(=O)(=O)CC1: 2.66
O=C(NO)C1(S(=O)(=O)N2CCN(c3ccc(-c4ccccc4F)cn3)CC2)CCOCC1: 0.34
CC(C)c1ccc(-c2cnc(N3CCN(S(=O)(=O)C4(C(=O)NO)CCOCC4)CC3)s2)cc1: 0.39
O=C(NO)C1(S(=O)(=O)N2CCC(c3ccc(CCCC(F)(F)F)cn3)CC2)CCOCC1: -0.13
O=C(NO)C1(S(=O)(=O)N2CCC(c3ccc(OC(F)(F)C(F)(F)F)cc3)CC2)CCOCC1: 1.47

For each of the molecules below, note its log10 of Ki.
1. CCCCOc1ccc(N2CCN(S(=O)(=O)C3(C(=O)NO)CCN(c4ccc(Cl)cc4)CC3)CC2)cc1
2. CCCC#Cc1cnc(N2CCN(S(=O)(=O)C3(C(=O)NO)CCOCC3)CC2)s1
3. C#CCN1CCC(C(=O)NO)(S(=O)(=O)N2CCN(c3ccc(OCCCC)cc3)CC2)CC1
4. CCCCOc1ccc(N2CCN(S(=O)(=O)C3(C(=O)NO)CCN(C(=O)C(C)C)CC3)CC2)cc1
5. CCCCOc1ccc(N2CCN(S(=O)(=O)C3(C(=O)NO)CCN(C=O)CC3)CC2)cc1
6. COc1ccc(-c2cnc(N3CCN(S(=O)(=O)C4(C(=O)NO)CCOCC4)CC3)s2)cc1OC

[1.76, 0.15, 0.17, 0.08, -0.02, 0.81]

For each of the molecules below, note its log10 of Ki.
1. COC(=O)c1ccc(N2CCN(S(=O)(=O)C3(C(=O)NO)CCOCC3)CC2)cc1
2. CCN1CCC(C(=O)NO)(S(=O)(=O)N2CCN(c3ccc(-c4ccccc4)c(F)c3)CC2)CC1
3. Cc1ccc(-c2ccc(C3CCN(S(=O)(=O)C4(C(=O)NO)CCOCC4)CC3)nc2)s1
4. CCC=C1CCN(S(=O)(=O)C2(C(=O)NO)CCOCC2)CC1
5. CCCCOc1ccc(N2CCN(S(=O)(=O)C3(C(=O)NO)CCN(C(=O)c4ccncc4)CC3)CC2)cc1

1: 0.38; 2: 0.58; 3: 0.17; 4: 2.34; 5: 0.13

Record log10 of Ki per entry; entries follow.
1. O=C(NO)C1(S(=O)(=O)N2CCN(c3ncc(-c4ccc(Cl)c(Cl)c4)s3)CC2)CCOCC1
2. O=C(NO)C1(S(=O)(=O)N2CCN(c3ccc(-c4ccc(Cl)c(Cl)c4)cc3)CC2)CCOCC1
3. O=C(NO)C1(S(=O)(=O)N2CCC(c3ccc(CCCC(F)(F)F)cc3)CC2)CCOCC1

1.36
1.98
-0.26
